Target: T1, Human PAR-2 on cells (human, UniProt P55085 26-397)
T1 construct: also called HEK-PAR-2 (#3); human PAR-2 transfected HEK293 cells
T1 sequence: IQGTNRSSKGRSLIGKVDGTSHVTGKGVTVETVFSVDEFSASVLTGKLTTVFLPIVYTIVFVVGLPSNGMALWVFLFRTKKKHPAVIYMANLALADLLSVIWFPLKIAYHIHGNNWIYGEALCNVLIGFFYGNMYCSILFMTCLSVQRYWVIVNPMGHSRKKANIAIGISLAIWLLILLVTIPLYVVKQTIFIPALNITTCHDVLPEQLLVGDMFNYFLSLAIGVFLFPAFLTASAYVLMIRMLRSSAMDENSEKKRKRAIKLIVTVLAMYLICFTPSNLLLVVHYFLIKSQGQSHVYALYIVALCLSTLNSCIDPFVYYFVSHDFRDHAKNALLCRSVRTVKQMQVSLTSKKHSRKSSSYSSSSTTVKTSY
Test: cell binding of IgG4_Pro, HEK-PAR-2 (#3)
Reported pEC50 values for the following binders.
# pEC50 is unitless: minus log10 of the molar concentration; print number only

Solved cases (3 shown):
Ab5150 IgG4_Pro (cross-cloned: light chain of Ab4999 with heavy chain of Ab5003) (antibody, V domains shown, IgG4_Pro format) VH: QVQLVESGGGLVQPGGSLRLSCAASGFTFSSYAMNWVRQAPGKGLEWVSAISYKGHLTGYADSVKGRFTISRDNSKNTLYLQMNSLRAEDTAVYYCARIQNDPMDVWGQGTLVTVSS VL: DIELTQPPSVSVAPGQTARISCSGDNLGKKYVQWYQQKPGQAPVLVIYDDSNRPSGIPERFSGSNSGNTATLTISGTQAEDEADYYCQTWDYSSIRDETNVFGGGTKLTVLG: 9.52
Ab5005 IgG4_Pro (antibody, V domains shown, IgG4_Pro (human IgG4 constant regions, Ser241Pro hinge), lambda; also called IgG4p Ab5005) VH: QVQLVESGGGLVQPGGSLRLSCAASGFTFSSYAMNWVRQAPGKGLEWVSTISYSSSATSYADSVKGRFTISRDNSKNTLYLQMNSLRAEDTAVYYCARIQNDPMDVWGQGTLVTVSS VL: DIELTQPPSVSVAPGQTARISCSGDNLGKKYVQWYQQKPGQAPVLVIYDDSNRPSGIPERFSGSNSGNTATLTISGTQAEDEADYYCQSWALVGSSESNVFGGGTKLTVLG: 10.00
Ab4997 IgG4_Pro (antibody, V domains shown, IgG4_Pro (human IgG4 constant regions, Ser241Pro hinge), lambda; also called IgG4p Ab4997) VH: QVQLVESGGGLVQPGGSLRLSCAASGFTFSSYAMNWVRQAPGKGLEWVSAISYNGKLKGYADSVKGRFTISRDNSKNTLYLQMNSLRAEDTAVYYCARIQNDPMDVWGQGTLVTVSS VL: DIELTQPPSVSVAPGQTARISCSGDNLGKKYVQWYQQKPGQAPVLVIYDDSNRPSGIPERFSGSNSGNTATLTISGTQAEDEADYYCSSWDVGSDGWVFGGGTKLTVLG: 9.40

-- ask I'd like to know its pEC50. The binder in question is Ab4999 IgG4_Pro (antibody, V domains shown, IgG4_Pro (human IgG4 constant regions, Ser241Pro hinge), lambda; also called IgG4p Ab4999) VH: QVQLVESGGGLVQPGGSLRLSCAASGFTFSSYAMNWVRQAPGKGLEWVSTISYSSSATSYADSVKGRFTISRDNSKNTLYLQMNSLRAEDTAVYYCARIQNDPMDVWGQGTLVTVSS VL: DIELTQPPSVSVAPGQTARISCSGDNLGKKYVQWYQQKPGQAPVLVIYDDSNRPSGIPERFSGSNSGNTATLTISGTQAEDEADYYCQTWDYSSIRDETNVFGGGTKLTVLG
-- reply 9.70

-- ask I'd like to know its pEC50. The binder in question is Ab4994 IgG4_Pro (antibody, V domains shown, IgG4_Pro: variable regions fused to human IgG4 constant regions with Ser241Pro in the hinge, lambda light chain; also called IgG4p Ab4994) VH: QVQLVESGGGLVQPGGSLRLSCAASGFTFSSYAMNWVRQAPGKGLEWVSAISYSGHLTGYADSVKGRFTISRDNSKNTLYLQMNSLRAEDTAVYYCARIQNDPMDVWGQGTLVTVSS VL: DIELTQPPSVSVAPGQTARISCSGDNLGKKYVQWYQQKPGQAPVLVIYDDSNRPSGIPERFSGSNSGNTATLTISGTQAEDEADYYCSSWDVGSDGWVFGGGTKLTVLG
-- reply 9.40

-- ask I'd like to know its pEC50. The binder in question is Ab5151 IgG4_Pro (cross-cloned: light chain of Ab4999 with heavy chain of Ab5007) (antibody, V domains shown, IgG4_Pro format) VH: QVQLVESGGGLVQPGGSLRLSCAASGFTFSSYAMNWVRQAPGKGLEWVSAISFSGHLTGYADSVKGRFTISRDNSKNTLYLQMNSLRAEDTAVYYCARIQNDPMDVWGQGTLVTVSS VL: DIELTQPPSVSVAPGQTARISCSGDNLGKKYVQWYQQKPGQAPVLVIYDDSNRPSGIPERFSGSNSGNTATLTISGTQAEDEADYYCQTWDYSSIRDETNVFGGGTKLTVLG
-- reply 9.40

Value source: patent US20100119506A1
